experiment: Chemical stability of the compound in 1M HCl assessed as half life measured for 24 hrs by LC-MS analysis; assay type: physicochemical; settings: 1M HCl
REPORTED METRIC: half-life

// query half-life value for entry `CN(C)CCc1c[nH]c2cccc(O)c12.OB(O)O`
> 167 h

---

experiment: Metabolic stability in human liver microsomes assessed as degradation at 1 uM measured upto 45 mins in presence of NADPH measured per mg protein by LC-MS/MS analysis; type: ADME, Microsome; conditions: 0.75 h
REPORTED METRIC: Drug degradation

Past entries and their recorded results:
CCCC(=O)Oc1cccc2[nH]cc(CCN(C)C)c12.O=C(O)/C=C/C(=O)O: > 200 µL/min
CN(C)CCc1c[nH]c2cccc(OS(=O)(=O)O)c12: > 200 µL/min
COC(=O)Oc1cccc2[nH]cc(CCN(C)C)c12.O=C(O)/C=C/C(=O)O: > 200 µL/min
CN(C)CCc1c[nH]c2cccc(OC(=O)OCc3ccccc3)c12.O=C(O)/C=C/C(=O)O.O=CO: > 200 µL/min
CN(C)CCc1c[nH]c2cccc(OP(=O)(O)O)c12 [PSILOCYBIN]: < 10 µL/min
CCCCC(=O)Oc1cccc2[nH]cc(CCN(C)C)c12.O=C(O)/C=C/C(=O)O: > 200 µL/min
CN(C)CCc1c[nH]c2cccc(OB(O)O)c12.O=C(O)/C=C/C(=O)O: > 200 µL/min
CN(C)CCc1c[nH]c2cccc(OCc3ccccc3)c12: 44 µL/min
CC(C)COC(=O)Oc1cccc2[nH]cc(CCN(C)C)c12.O=CO: > 200 µL/min

Let's switch to this compound now.
// query Drug degradation value for entry `CN(C)CCc1c[nH]c2cccc(OC(=O)N3CCCCC3)c12.O=C(O)/C=C/C(=O)O`
< 10 µL/min

---

experiment: Photolytic stability of the compound assessed as parent compound remaining incubated under 12900 lx light irradiation measured for 14 days by LC-MS analysis; assay type: physicochemical; conditions: time 14 day; read-out: Stability
REPORTED METRIC: remaining at 336 h (%)
Could you give me the number in %? Just the number is fine.

// query remaining at 336 h value for entry `CN(C)CCc1c[nH]c2cccc(O)c12.OB(O)O`
0
